Listed here are variants together with their documented abundance fitness.
B1: Protein S100-G, residues 1 to 79; numbered along this chain, P02633 (parent)
chain: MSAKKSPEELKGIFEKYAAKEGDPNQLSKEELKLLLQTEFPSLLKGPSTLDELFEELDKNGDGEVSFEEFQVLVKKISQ

- Variants of: B1
- test_method_notes: abundance fitness (aPCA) (normalised: wild type 0, dead -1); higher = more abundant; growth selection in yeast, the domain comes from the species named
- condition: Bos taurus
Could you keep your reply to the number by itself?

// abundance fitness value for G61H : -0.163

// abundance fitness value for L27N : -0.681

// abundance fitness value for M1D : -0.392

// abundance fitness value for V65L : 0.044

Others:
// abundance fitness value for V72P : -0.018

// abundance fitness value for L53W : 0.013

// abundance fitness value for K4W : -0.343

// abundance fitness value for G46R : -0.008

// abundance fitness value for K11P : -0.373
